- testTarget: UniProt:P41145
- Sequence (P41145 whole entry): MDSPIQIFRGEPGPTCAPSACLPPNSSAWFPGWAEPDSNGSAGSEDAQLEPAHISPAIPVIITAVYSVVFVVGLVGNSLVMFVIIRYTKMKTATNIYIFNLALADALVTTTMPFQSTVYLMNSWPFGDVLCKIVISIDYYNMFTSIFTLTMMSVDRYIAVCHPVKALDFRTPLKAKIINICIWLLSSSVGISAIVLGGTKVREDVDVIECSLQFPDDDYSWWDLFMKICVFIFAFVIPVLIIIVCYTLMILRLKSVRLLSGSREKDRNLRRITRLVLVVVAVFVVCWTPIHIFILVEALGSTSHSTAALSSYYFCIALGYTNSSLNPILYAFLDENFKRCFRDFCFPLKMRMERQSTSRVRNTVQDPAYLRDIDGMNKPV
- Assay type: functional
pIC50: −log10 of the molar value.
quantity: pIC50

Exercise: # returns recorded pIC50 (system: UniProt:P41145) for O=c1nc(-c2ccccn2)[nH]c2sc(-c3ccccc3)cc12
Solution: < 4.49

###

- testTarget: Zinc finger protein mex-5 (Caenorhabditis elegans)
- Sequence (Q9XUB2 whole entry): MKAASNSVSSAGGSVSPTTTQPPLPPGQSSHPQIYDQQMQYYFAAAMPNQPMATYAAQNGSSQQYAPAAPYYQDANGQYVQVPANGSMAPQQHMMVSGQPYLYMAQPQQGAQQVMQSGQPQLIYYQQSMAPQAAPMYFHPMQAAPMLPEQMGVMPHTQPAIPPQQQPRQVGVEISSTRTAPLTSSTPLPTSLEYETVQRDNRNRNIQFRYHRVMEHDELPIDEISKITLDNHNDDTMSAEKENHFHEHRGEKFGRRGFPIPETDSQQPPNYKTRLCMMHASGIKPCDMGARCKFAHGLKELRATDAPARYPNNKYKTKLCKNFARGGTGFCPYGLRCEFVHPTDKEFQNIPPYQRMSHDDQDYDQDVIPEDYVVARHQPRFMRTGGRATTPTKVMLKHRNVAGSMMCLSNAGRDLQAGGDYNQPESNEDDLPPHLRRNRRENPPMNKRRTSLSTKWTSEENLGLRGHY
- experimentNotes: MEX-5/TCR-2 RNA interaction inhibitors, dose response, biochemical, C. elegans, fluorescence polarization (AID 1960)
Activity calls are given as the source filed them.
quantity: EC50

Cc1ccc(N=Nc2c(O)[nH]c3ccc(F)cc23)cc1 ... > 300 µM (inconclusive)

Moving on to the next compound.
Exercise: Requested field: EC50. Item: CCOC1(OCC)N=C(N)C2(C#N)C(c3ccc(NC(C)=O)cc3)C12C#N (centres undefined)
Solution: 79.4 µM (active)

###

Below, each entry is listed alongside its reported IC50.
- testTarget: Glucose-6-phosphate 1-dehydrogenase (Homo sapiens)
- Sequence (P11413 whole entry): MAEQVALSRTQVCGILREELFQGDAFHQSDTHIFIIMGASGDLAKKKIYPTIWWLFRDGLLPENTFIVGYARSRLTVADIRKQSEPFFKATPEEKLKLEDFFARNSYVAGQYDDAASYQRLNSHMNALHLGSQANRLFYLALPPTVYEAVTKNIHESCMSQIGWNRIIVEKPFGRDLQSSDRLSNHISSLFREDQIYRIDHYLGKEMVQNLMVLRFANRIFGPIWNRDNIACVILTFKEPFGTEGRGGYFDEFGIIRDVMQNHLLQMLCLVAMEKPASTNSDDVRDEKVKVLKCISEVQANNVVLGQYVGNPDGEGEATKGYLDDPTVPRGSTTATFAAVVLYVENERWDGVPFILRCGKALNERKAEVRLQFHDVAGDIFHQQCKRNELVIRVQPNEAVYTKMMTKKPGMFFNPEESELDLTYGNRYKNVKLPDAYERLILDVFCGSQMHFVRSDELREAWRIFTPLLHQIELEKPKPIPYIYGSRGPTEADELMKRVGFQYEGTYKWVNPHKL
- experimentNotes: human G6PD enzyme inhibitors, dose response, selectivity assay for P. falciparum G6PD inhibitor project, biochemical, fluorescence (AID 504792)
- Format: functional
Active and inactive are the calls of the source.

// solved cases for IC50 follow
COc1cc(/C=C2\SC(c3ccc(C)cc3)=NC2=O)ccc1O ... > 80 µM (inactive)
CC(C)(C)NC(=O)COc1ccc(CNc2ccc3[nH]c(O)nc3c2)cc1 ... 64.6 µM (inactive)
Oc1cc(-n2cccn2)c(O)cc1-n1cccn1 ... 33 µM (inactive)
COc1ccc(N2CSC3=C(C#N)C(c4ccc(OC)c(OC)c4)CC(=O)N3C2)c(OC)c1 (stereo not given) ... > 80 µM (inactive)

Next:
Exercise: # IC50 lookup, item COc1cc(OC)c(C2CC(=O)N3CN(c4ccccc4)CSC3=C2C#N)cc1OC (stereo not given)
Solution: > 80 µM (inactive)

###

The entries below come with measured EC50 values attached.
- experimentNotes: cytotoxicity toward NIH3T3 fibroblasts, dose response, counter-screen, cell-based, ATP luminescence, mouse fibroblasts (AID 2010);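 further: cells exposed to compound for about 90 hours before reading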
- Format: functional
Activity calls are given as the source filed them.

Answered cases to consult:
O=C(OCn1ncc(Cl)c(Cl)c1=O)c1ccccc1Cl ... 1.07 µM (active)
Oc1ccccc1/C=N/Nc1nc2ccccc2o1 ... > 60 µM (not active)
CCc1ccc2nc(O)c(CN(Cc3ccccc3OC)C(=O)Nc3ccccc3OC)cc2c1 ... > 60 µM (not active)
CN1c2ccsc2/C(=N/Nc2ccc(F)cc2)CS1(=O)=O ... > 60 µM (not active)
CCN(CC)S(=O)(=O)c1ccc(N2CCN(C)CC2)c(NC(=O)COc2ccc(F)cc2Cl)c1 ... > 60 µM (not active)

Exercise: For the compound shown here, COc1ccc(NCc2nc3ccccc3n2CCOc2ccccc2)cc1 , give the reported EC50.
Solution: > 60 µM (not active)

Exercise: Try Oc1nc(-c2ccccn2)nc2sc(-c3ccccc3)cc12 next.
Solution: 1.27 µM (active)

Exercise: Here is the next compound: CC(Oc1ccc(Br)cc1)C(=O)NC1CCN(Cc2ccccc2)CC1 (centres undefined)
Solution: > 60 µM (not active)

Exercise: Next up: COc1cc(NC(=O)c2ccc([N+](=O)[O-])o2)ccc1NC(=O)c1cccs1
Solution: > 60 µM (not active)

This collection of values is drawn from ChEMBL document CHEMBL1201862.
